melting point: recorded values

Molecule	melting point
CC(C)(C)c1ccc(OC(=O)C2=CCC3(C(=O)N4C(C(=O)OC(c5ccccc5)c5ccccc5)C(C)(C)SC43)C2C(=O)c2ccccc2)cc1 (centres unmarked) [Compound 9b]	206.7 to 208.9 °C
COc1ccc(COC(=O)C2=CCC3(C(=O)N4C(C(=O)OC(c5ccccc5)c5ccccc5)C(C)(C)SC43)C2C(=O)c2ccc(Br)cc2)cc1 (centres unmarked) [Compound 14g]	82.6 to 84.6 °C
CC1(C)SC2N(C(=O)C23C(C(=O)OCc2ccccc2)=CCC3C(=O)c2ccc(Cl)cc2)C1C(=O)OC(c1ccccc1)c1ccccc1 (centres unmarked) [Compound 13b]	116.3 to 118.3 °C
CC1(C)SC2N(C(=O)C23CC=C(C(=O)OC(c2ccccc2)c2ccccc2)C3C(=O)c2ccccc2)C1C(=O)OC(c1ccccc1)c1ccccc1 (centres unmarked) [Compound 9g]	83.4 to 85.2 °C
CC1(C)SC2N(C(=O)C23C(C(=O)OCc2ccccc2)=CCC3C(=O)c2ccc3ccccc3c2)C1C(=O)OC(c1ccccc1)c1ccccc1 (centres unmarked) [Compound 13h]	90.8 to 92.8 °C
CC1(C)SC2N(C(=O)C23C(C(=O)OCc2ccccc2)=CCC3C(=O)c2ccc([N+](=O)[O-])cc2)C1C(=O)OC(c1ccccc1)c1ccccc1 (centres unmarked) [Compound 13d]	122.7 to 124.7 °C
CC1(C)SC2N(C(=O)C23CC=C(C(=O)OCc2ccccc2)C3C(=O)c2ccc([N+](=O)[O-])cc2)C1C(=O)OC(c1ccccc1)c1ccccc1 (centres unmarked) [Compound 12d]	122 to 123.7 °C
COc1ccc(COC(=O)C2=CCC3(C(=O)N4C(C(=O)OC(c5ccccc5)c5ccccc5)C(C)(C)SC43)C2C(=O)c2ccc(Cl)cc2)cc1 (centres unmarked) [Compound 14d]	76.1 to 78.1 °C
CC1(C)SC2N(C(=O)C23CC=C(C(=O)OCc2ccc(Cl)cc2)C3C(=O)c2ccccc2)C1C(=O)OC(c1ccccc1)c1ccccc1 (centres unmarked) [Compound 9k]	49.8 to 51.5 °C
COc1cccc(OC(=O)C2=CCC3(C(=O)N4C(C(=O)OC(c5ccccc5)c5ccccc5)C(C)(C)SC43)C2C(=O)c2ccccc2)c1 (centres unmarked) [Compound 9c]	67.8 to 69.7 °C
CC1(C)SC2N(C(=O)C23CC=C(C(=O)OCc2ccccc2)C3C(=O)c2cc(F)cc(F)c2)C1C(=O)OC(c1ccccc1)c1ccccc1 (centres unmarked) [Compound 12f]	69.5 to 71.5 °C
CC1(C)SC2N(C(=O)C23C(C(=O)OCc2ccccc2)=CCC3C(=O)c2cc(F)cc(F)c2)C1C(=O)OC(c1ccccc1)c1ccccc1 (centres unmarked) [Compound 13f]	134.8 to 136.8 °C
CC1(C)SC2N(C(=O)C23C(C(=O)OCc2ccccc2)=CCC3C(=O)c2ccc(Br)cc2)C1C(=O)OC(c1ccccc1)c1ccccc1 (centres unmarked) [Compound 13c]	115.9 to 117.9 °C
CC1(C)SC2N(C(=O)C23C(C(=O)OCc2ccccc2)=CCC3C(=O)c2ccc(F)cc2)C1C(=O)OC(c1ccccc1)c1ccccc1 (centres unmarked) [Compound 13a]	73.9 to 75.9 °C
CC1(C)SC2N(C(=O)C23CC=C(C(=O)OCC=Cc2ccccc2)C3C(=O)c2ccccc2)C1C(=O)OC(c1ccccc1)c1ccccc1 (centres unmarked) [Compound 9n]	67.8 to 69.4 °C
CC1(C)SC2N(C(=O)C23CC=C(C(=O)OCc2ccccc2)C3C(=O)c2ccc(Cl)cc2)C1C(=O)OC(c1ccccc1)c1ccccc1 (centres unmarked) [Compound 12b]	145.2 to 146.5 °C
C#CCOC(=O)C1=CCC2(C(=O)N3C(C(=O)OC(c4ccccc4)c4ccccc4)C(C)(C)SC32)C1C(=O)c1ccccc1 (centres unmarked) [Compound 9m]	62.2 to 64.8 °C
